Listed below: growth values for each entry.
system: IGROV1 ovarian; assay: NCI-60 one-dose screen, 48 h (100 = growth as untreated, 0 = no growth, -100 = all killed); conditions: 10 µM unless noted
Compounds without any hit were thinned out: in the full panel of roughly 83,000, 20% have a hit.
I only need the number, in %, no unit after it.

INPUT: Please indicate growth recorded for CC(=O)C(CO)C(=O)Nc1ccccc1 (stereo not drawn)
OUTPUT: 105

====

test system: EKVX NSCLC; experiment: NCI-60 one-dose screen, 48 h; conditions: 10 µM
This is part of a sample that, as a whole, favours compounds with a hit. Of some 83,000 tested, about 20% had one in any assay. Activity calls are given as the source filed them. How the source made its calls: active means growth percent below 10; inactive means the rest.
API: response.call in true = active, false = inactive

>  <compound>
Cn1cnc2nc[nH]c2c1=S

>  <class-label>
false

$$$$
>  <compound>
C/C=C(/C)C(=O)OC1C=C(CO)C(=O)C(OC(=O)C(C)(O)C(C)Cl)C1C(C)C (configuration not stated)

>  <class-label>
true

$$$$
>  <compound>
COC1NC(Cl)=C(C#N)C(C#N)(C#N)C1(C)C (configuration not stated)

>  <class-label>
false

$$$$
>  <compound>
CC(=O)NNC(=O)c1sc(NC(C)=O)nc1C

>  <class-label>
false

$$$$
>  <compound>
Oc1ccccc1/C=N/N=C/c1c(O)ccc2ccccc12

>  <class-label>
false

$$$$
>  <compound>
C/C=C(/C)C(=O)OC1C=C(CO)C(=O)C(OC(=O)C2(C)OC2C)C1C(C)C (configuration not stated)

>  <class-label>
true

$$$$

INPUT: Please state the recorded outcome for this compound: `COc1ccc2c(c1)/C(=C/c1c(-c3cc(OC)c(OC)c(OC)c3)nc3sccn13)C(=O)N2`
OUTPUT: false

====

Listed below: growth values for each entry.
system: RXF 393 renal; test: NCI-60 one-dose screen, 48 h (100 = growth as untreated, 0 = no growth, -100 = all killed); conditions: 10 µM unless noted
About 83,000 compounds went through this panel and 20% of them were active in at least one assay; those are over-represented in the sample as a whole.
I only need the number, in %, no unit after it.

In the examples that follow, each entry is paired with its recorded growth.
>  <molecule>
O=C1N/C(=N\c2nnc(-c3ccc(O)cc3)s2)S/C1=C\c1ccccc1O

>  <test-value>
113

$$$$
>  <molecule>
C[C@@H](c1ccc2c(c1)[nH]c1ccc(Cl)cc12)c1nc2ccc(Cl)cc2[nH]1

>  <test-value>
101

$$$$
>  <molecule>
c1cc(C2CCCCC2)ccc1OCCCCCCN1CCNCC1

>  <test-value>
32

$$$$
>  <molecule>
CCCCCCCCCc1cc[n+](CC(=O)c2ccc([N+](=O)[O-])cc2)cc1

>  <test-value>
32.5

$$$$
>  <molecule>
COc1ccc(-c2cc(C#N)c(NNC(C)=O)[nH]2)cc1

>  <test-value>
118

$$$$

INPUT: Please indicate growth recorded for `OCCN1CCCN(CCCN2c3ccccc3Sc3ccc(C(F)(F)F)cc32)CC1`
OUTPUT: 47

INPUT: Please indicate growth recorded for `COc1cc(-c2nn(-c3ccc(NC(=O)Nc4ccc(Cl)c(Cl)c4)cc3)cc2-c2ccncc2)ccc1Cl`
OUTPUT: 22.6

INPUT: Please indicate growth recorded for `COc1ccc(Cn2cc3c(c2-c2ccccc2)CCc2cnoc2-3)cc1OC`
OUTPUT: 13.1

INPUT: Please indicate growth recorded for Nc1nc2c(c3ncncc13)C(c1cccc(C(F)(F)F)c1)Cc1ncncc1-2 (stereo not given)
OUTPUT: 6.31

INPUT: Please indicate growth recorded for `Cc1nc(NC(=S)Nc2ccc(F)cc2)sc1C(=O)NNC(=S)Nc1ccc(F)cc1`
OUTPUT: 94

====

Listed below: growth values for each entry.
test system: NCI-H322M lung; assay: NCI-60 one-dose screen, 48 h (100 = growth as untreated, 0 = no growth, -100 = all killed); conditions: 10 µM unless noted
Compounds without any hit were thinned out: in the full panel of roughly 83,000, 20% have a hit. Calls of active or inactive are those of the source. Rule for the calls: active = growth percent below 10; inactive = the rest.

>  <compound>
N#CCc1ncc(-c2ccc(C(F)(F)F)cc2)c(NC2CCCCCC2)n1

>  <measured-on>
NCI-H322M lung

>  <growth>
68.1% [100 µM] (inactive)

$$$$
>  <compound>
Oc1ccccc1/C=N/N=C\c1ccccc1Cl

>  <measured-on>
NCI-H322M lung

>  <growth>
97.6% (inactive)

$$$$

INPUT: Please indicate growth recorded for CCC(CCCN1C(=O)c2ccccc2C1=O)Nc1cc(OC)cc2c(C)ccnc12 (stereo not drawn)
OUTPUT: 104% (inactive)

====

test system: UACC-257 melanoma; assay: NCI-60 one-dose screen, 48 h (100 = growth as untreated, 0 = no growth, -100 = all killed); conditions: 10 µM unless noted
Compounds without any hit were thinned out: in the full panel of roughly 83,000, 20% have a hit.
Criterion: growth strictly less than 90%. Met: Yes. Not met: No.

>  <compound>
O=C(CCl)NC1c2ccccc2Oc2ccccc21

>  <class-label>
Yes

$$$$

INPUT: Hi there! Is growth for CCOC(=O)C1C(=O)C(=O)N(C(C)C)C1C(=O)OCC (stereo not drawn) below 90%, do you know?
OUTPUT: Yes

====

system: SF-539 CNS; experiment: NCI-60 one-dose screen, 48 h (100 = growth as untreated, 0 = no growth, -100 = all killed); conditions: 10 µM unless noted
Compounds without any hit were thinned out: in the full panel of roughly 83,000, 20% have a hit. The source made the active and inactive calls. The calls were made as follows: active = growth percent below 10; inactive = the rest.
assay-endpoint: growth

>  <molecule>
O=C(NCCO)C(F)(F)F

>  <growth>
93.5% (inactive)

$$$$

INPUT: Please indicate growth recorded for CCN(CC)C(=O)C1(C)CCCC2(C)c3cc(OC(C)=O)ccc3CCC12 (stereo not drawn)
OUTPUT: 89.2% (inactive)

INPUT: Please indicate growth recorded for Nc1nc2c(c3cnccc13)C(c1ccc(Cl)c(Cl)c1)Cc1cnccc1-2 (stereo not drawn)
OUTPUT: -45.1% (active)

INPUT: Please indicate growth recorded for `COc1ccc(Cn2cc3c(c2)-c2oncc2CC3)cc1OC`
OUTPUT: -21.5% (active)

====

system: EKVX NSCLC; experiment: NCI-60 one-dose screen, 48 h; settings: 10 µM
About 83,000 compounds went through this panel and 20% of them were active in at least one assay; those are over-represented in the sample as a whole. Calls of active or inactive are those of the source. Rule for the calls: active = growth percent below 10; inactive = the rest.
API: response.call in 1.0 (active), 0.0 (inactive)

Known results for molecules:
>  <molecule>
O=C(N/N=C\c1ccc(Cl)cc1)C(=O)N/N=C\c1ccc(Cl)cc1

>  <class-label>
0.0

$$$$
>  <molecule>
COc1cccc(-c2cc(-c3cc4ccccc4oc3=O)nc(N)n2)c1

>  <class-label>
0.0

$$$$
>  <molecule>
COc1ccc(Cn2cc3c(c2-c2ccc(OC)cc2)CCc2cnoc2-3)cc1

>  <class-label>
0.0

$$$$
>  <molecule>
CC1Cc2cc(F)ccc2-n2cccc21 (stereo not given)

>  <class-label>
0.0

$$$$

INPUT: Please state the recorded outcome for this molecule: `Nc1nc(-c2cccc(Br)c2)cc(-c2cc3ccccc3oc2=O)n1`
OUTPUT: 0.0

INPUT: Please state the recorded outcome for this molecule: `CCc1ccc(C(=Nc2ccc(N(C)C(=O)CN3CCN(C)CC3)cc2)c2c(O)[nH]c3ccc(C(=O)OC)cc23)cc1`
OUTPUT: 1.0

INPUT: Please state the recorded outcome for this molecule: Cc1c([C@H](C(Cl)Cl)[C@H](O)[C@H]2C[C@H](C)C(=O)O2)ccc2c1C(=O)[C@H]1[C@H]2C[C@@H](Br)[C@@]23O[C@@H](CO[C@H]2O)CC13C (stereo not given in full)
OUTPUT: 0.0

INPUT: Please state the recorded outcome for this molecule: N#CC1=C(N2CCOCC2)NC2c3ccccc3Sc3ccccc3N2C1=N (stereo not given)
OUTPUT: 0.0

====

system: MALME-3M melanoma; experiment: NCI-60 one-dose screen, 48 h (100 = growth as untreated, 0 = no growth, -100 = all killed); settings: 10 µM unless noted
Compounds without any hit were thinned out: in the full panel of roughly 83,000, 20% have a hit.
assay-endpoint: growth (%)
I only need the number, in %, no unit after it.

In the examples that follow, each entry is paired with its recorded growth.
>  <molecule>
S=C(N/N=C/c1cc(Cl)cc(Cl)c1)NC12CC3CC(CC(C3)C1)C2

>  <measured-on>
MALME-3M melanoma

>  <growth, %>
54.6

$$$$
>  <molecule>
CC(=O)Nc1nc(C)c(C(=O)NN)s1

>  <measured-on>
MALME-3M melanoma

>  <growth, %>
120

$$$$
>  <molecule>
Cc1c(CN(C)C)cc(C(C)C)cc1C(C)C

>  <measured-on>
MALME-3M melanoma

>  <growth, %>
124

$$$$

INPUT: Please indicate growth recorded for CC(O)C(N)=O (stereo not given)
OUTPUT: 105

INPUT: Please indicate growth recorded for `O=[N+]([O-])c1ccc(-c2ncc(-c3ccc(O)cc3O)[nH]2)cc1`
OUTPUT: 218

INPUT: Please indicate growth recorded for `C#CCCCCCCC[C@@H]1OC(=O)[C@H]([C@@H](C)CC)NC(=O)[C@H]([C@@H](C)CC)NC(=O)CC(=O)[C@@H]1C`
OUTPUT: 92.9

INPUT: Please indicate growth recorded for `COc1cc(NC(=O)CSc2nc3ccc(Cl)cc3c(=O)n2-c2ccc(F)cc2)cc(OC)c1OC`
OUTPUT: 85.8

INPUT: Please indicate growth recorded for `CN1NC(c2ccccc2)NN(C)C1=O`
OUTPUT: 84.8
